# Test system: Staphylococcus aureus
# Test name: Antibacterial activity against methicillin-sensitive Staphylococcus aureus ATCC 29213 assessed as growth inhibition after 24 hr by two-fold serial dilution method
# Type: functional
# Conditions: ATCC 29213, 24 h
Readout name: MIC (µg/mL)
One number for each entry, in µg/mL.

Please review the entries below; each comes with its answer.
| Structure smiles string | Reported value |
| --- | --- |
| O=C(O)c1cn(C2CC2)c2cc(-n3cc(CN4CCNCC4)nn3)c(F)cc2c1=O | 16 |
| O=C(O)c1cn(C2CC2)c2cc(-n3cc(CNC4CCCC4)nn3)c(F)cc2c1=O | 16 |
| COc1ccc(NCc2cn(-c3cc4c(cc3F)c(=O)c(C(=O)O)cn4C3CC3)nn2)cc1 | 0.5 |
| O=C(O)c1cn(C2CC2)c2cc(-n3cc(Cn4ccnc4)nn3)c(F)cc2c1=O | 32 |

Give MIC for the following compound: O=C(O)c1cn(C2CC2)c2cc(-n3cc(CNc4ccc(F)cc4)nn3)c(F)cc2c1=O
0.25

###

# System: Staphylococcus aureus
# Test name: Antibacterial activity against methicillin-sensitive Staphylococcus aureus ATCC 29213 assessed as growth inhibition after 24 hr by two-fold serial dilution method
# Assay type: functional
# Conditions: ATCC 29213, 24 h
Readout name: MIC
# include the unit after the value

Please review the entries below; each comes with its answer.
| Structure smiles string | MIC |
| --- | --- |
| O=C(O)c1cn(C2CC2)c2cc(-n3cc(CNc4ccccc4)nn3)c(F)cc2c1=O | 0.25 µg/mL |
| O=C(O)c1cn(C2CC2)c2cc(-n3cc(CN4CCOCC4)nn3)c(F)cc2c1=O | 8 µg/mL |

For each of the molecules below, note its MIC.
1. O=C(O)c1cn(C2CC2)c2cc(N3CCNCC3)c(F)cc2c1=O
2. CC(C)NCc1cn(-c2cc3c(cc2F)c(=O)c(C(=O)O)cn3C2CC2)nn1
3. CCCN(CCC)Cc1cn(-c2cc3c(cc2F)c(=O)c(C(=O)O)cn3C2CC2)nn1
4. Cc1ccc(NCc2cn(-c3cc4c(cc3F)c(=O)c(C(=O)O)cn4C3CC3)nn2)cc1
5. O=C(O)c1cn(C2CC2)c2cc(-n3cc(CNC4CCCCC4)nn3)c(F)cc2c1=O

0.5 µg/mL
16 µg/mL
8 µg/mL
0.5 µg/mL
16 µg/mL

###

# Test system: Staphylococcus aureus
# Test name: Antibacterial activity against methicillin-sensitive Staphylococcus aureus ATCC 29213 assessed as growth inhibition after 24 hr by two-fold serial dilution method
# Type: functional
# Conditions: ATCC 29213, 24 h
Please provide measured MIC for the entries that follow.
# include the unit after the value

Please review the entries below; each comes with its answer.
| Structure smiles string | MIC |
| --- | --- |
| O=C(O)c1cn(C2CC2)c2cc(-n3cc(CNC4CCCCCC4)nn3)c(F)cc2c1=O | 32 µg/mL |
| O=C(O)c1cn(C2CC2)c2cc(-n3cc(CNCc4ccc(F)cc4)nn3)c(F)cc2c1=O | 2 µg/mL |

For each of the compounds below, note its MIC.
1. CCN(CC)Cc1cn(-c2cc3c(cc2F)c(=O)c(C(=O)O)cn3C2CC2)nn1
2. O=C(O)c1cn(C2CC2)c2cc(-n3cc(CNCc4ccccc4)nn3)c(F)cc2c1=O
3. O=C(O)c1cn(C2CC2)c2cc(-n3cc(CNc4ccc(Cl)cc4)nn3)c(F)cc2c1=O

8 µg/mL
2 µg/mL
0.25 µg/mL
